assay: Urine time course after LSD administration, GC/MS; assay type: in vivo; details: human, urine sample JS U14, 98 hrs after LSD administration
Quantity name: concentration at 98 h (ng/mL)
Field: numeric (ng/mL). Do not append units.

# lookup: concentration at 98 h of CCN(CC)C(=O)[C@@H]1C=C2c3cccc4[nH]cc(c34)C[C@H]2N(C)C1 [LSD, lysergic acid diethylamide] 0

---

assay: Urine time course after LSD administration, GC/MS; type: in vivo; conditions: human, urine sample JS U7, 12 hrs after LSD administration
Quantity name: concentration at 12 h (ng/mL)
Field: numeric (ng/mL). Do not append units.

# lookup: concentration at 12 h of CCN(CC)C(=O)[C@@H]1C=C2c3cccc4[nH]cc(c34)C[C@H]2N(C)C1 [LSD, lysergic acid diethylamide] 0.52
